- Tgt: recombinant human plasminogen activator inhibitor-1 (Homo sapiens, UniProt P05121)
- Construct: purchased Molecular Innovations, Royal Oak, Mich
- Sequence (P05121 24-402): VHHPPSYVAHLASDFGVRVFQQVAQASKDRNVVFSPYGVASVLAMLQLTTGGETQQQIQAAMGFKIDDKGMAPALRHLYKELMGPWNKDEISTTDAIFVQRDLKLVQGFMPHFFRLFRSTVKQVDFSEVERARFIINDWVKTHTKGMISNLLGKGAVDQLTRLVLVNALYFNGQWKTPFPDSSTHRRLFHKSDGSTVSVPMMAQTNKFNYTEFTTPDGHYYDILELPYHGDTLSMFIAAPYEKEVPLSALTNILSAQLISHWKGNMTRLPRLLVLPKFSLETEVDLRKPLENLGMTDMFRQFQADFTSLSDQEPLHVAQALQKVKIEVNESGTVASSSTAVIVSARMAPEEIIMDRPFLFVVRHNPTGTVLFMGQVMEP
- Test protocol: Primary screen for the PAI-1 inhibition (chromogenic residual tPA activity)
- Type: biochemical
- Conditions: pH 6.6, read-out: % inhibition at 25 uM
- Method: Primary Screen for the PAI-1 Inhibition Test compounds were dissolved in DMSO at a final concentration of 10 mM, then diluted 100× in physiologic buffer. […] Following the second incubation, Spectrozyme-tPA (American Diagnostica, Greenwich, Conn.), a chromogenic substrate for tPA, was added and absorbance read at 405 nm at 0 and 60 minutes. […]
Endpoint: inhibition at 25 µM (%)

{"Molecule": "O=C([O-])C(=O)c1c(CO)n(Cc2ccccc2)c2ccc(-c3ccc(Cl)cc3)cc12.[K+] [Example 10, potassium salt]", "Units": "%", "Observed": 59}
{"Molecule": "Cc1cccc(-c2ccc3c(c2)c2c(n3Cc3ccccc3)COC(=O)C2=O)c1", "Units": "%", "Observed": 30}
{"Molecule": "Cc1ccc(Cn2c3c(c4cc(-c5cccc(C)c5)ccc42)C(=O)C(=O)OC3)cc1", "Units": "%", "Observed": 22}
{"Molecule": "O=C([O-])C(=O)c1c(CO)n(Cc2ccccc2)c2ccc(-c3ccc(-c4ccccc4)cc3)cc12.[K+] [Example 13, potassium salt]", "Units": "%", "Observed": 36}
{"Molecule": "O=C1OCc2c(c3cc(-c4ccc(Cl)cc4)ccc3n2Cc2ccccc2)C1=O", "Units": "%", "Observed": 40}
